B1: DnaJ homolog subfamily C member 5, residues 16 to 77; numbered along this chain, Q9H3Z4 (parent)
chain: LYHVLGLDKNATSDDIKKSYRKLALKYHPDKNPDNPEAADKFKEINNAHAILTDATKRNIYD

# Variants of: B1
# test description: abundance fitness (aPCA) (normalised: wild type 0, dead -1); higher = more abundant; growth selection in yeast, the domain comes from the species named
# condition description: Homo sapiens
Classify as follows. Reported abundance fitness greater than or equal to -0.2: rule met. Reported abundance fitness below: rule not met.

Given the entry N59M , answer whether its abundance fitness meets or surpasses -0.2. rule met

Given the entry Y27H , answer whether its abundance fitness meets or surpasses -0.2. rule met

Given the entry D30W , answer whether its abundance fitness meets or surpasses -0.2. rule not met

Given the entry A39I , answer whether its abundance fitness meets or surpasses -0.2. rule met

Given the entry P29L , answer whether its abundance fitness meets or surpasses -0.2. rule not met

Given the entry Y61A , answer whether its abundance fitness meets or surpasses -0.2. rule met

Given the entry K22E , answer whether its abundance fitness meets or surpasses -0.2. rule met

Given the entry K22W , answer whether its abundance fitness meets or surpasses -0.2. rule not met

Given the entry T12D , answer whether its abundance fitness meets or surpasses -0.2. rule not met

Given the entry L52I , answer whether its abundance fitness meets or surpasses -0.2. rule not met

Given the entry A38L , answer whether its abundance fitness meets or surpasses -0.2. rule not met
